- TARGET_UNDER_TEST: Free fatty acid receptor 1 (Homo sapiens)
- Sequence (O14842 whole entry): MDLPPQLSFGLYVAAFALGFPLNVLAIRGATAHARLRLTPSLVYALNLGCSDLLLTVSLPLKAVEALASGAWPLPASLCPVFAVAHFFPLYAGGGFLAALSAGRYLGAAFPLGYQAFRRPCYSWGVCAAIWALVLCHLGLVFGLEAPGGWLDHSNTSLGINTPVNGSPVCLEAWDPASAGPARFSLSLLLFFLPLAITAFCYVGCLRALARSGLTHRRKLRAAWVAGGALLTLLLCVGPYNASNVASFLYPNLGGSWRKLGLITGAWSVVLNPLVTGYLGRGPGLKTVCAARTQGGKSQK
- EXPERIMENT_DESCRIPTION: Agonist activity at human FFA1 expressed in CHO cells assessed as increase in calcium level measured by Fluo-4-AM staining based FLIPR assay
pEC50: −log10 of the molar value.
VALUE_TYPE: pEC50

[[record]]
chemical_string = "Cc1cc(OCCCS(C)(=O)=O)ccc1-c1cccc(COc2ccc(OCC(=O)O)c(F)c2)c1"
value_type = "pEC50"
recorded_result = 7.21

